System: HEp-2 cells
Test: Cytotoxicity in uninfected HEp-2 cells, neutral red
Format: cell-based
Design: unit not given here
Settings: absence of virus
Items are presented alongside their recorded TC50.

Observe how each entry below is paired with its result.
* CC[C@]1(COP(=O)(N[C@@H](C)C(=O)OC(C)C)Oc2ccccc2)O[C@@H](n2cnc3c(N(C)C)nc(N)nc32)[C@H](F)[C@@H]1O (some centres unmarked) | >100
* CC[C@]1(CO)O[C@@H](n2cnc3c(N(C)C)nc(N)nc32)[C@H](F)[C@@H]1O | >100
* CNc1nc(N)nc2c1ncn2[C@@H]1O[C@](C)(CO)[C@@H](O)[C@H]1F | >100
* CNc1nc(N)nc2c1ncn2[C@@H]1O[C@](C)(COP(=O)(N[C@@H](C)C(=O)OC(C)C)Oc2ccccc2)[C@@H](O)[C@H]1F (some centres unmarked) | >100

Enquiry: Find the recorded TC50 belonging to Nc1ccn([C@@H]2O[C@@](CO)(CCl)C(O)[C@H]2F)c(=O)n1 (stereo in doubt) and report it.
Return: >100
